# assay-info: Antioxidant activity assessed as reduction in H2O2 induced hydroxyl radical production at 40 uM
# Type: functional
Activity calls are given as the source filed them. The rule behind the calls is not given here.
Assign a class; possible classes are active, inactive

Short answer needed: outcome of this test for "COc1ccc2[nH]c(S)nc2c1" ?
inactive

What was the test verdict on "O=C(c1ccccc1)c1ccc2[nH]c(S)nc2c1" ?
inactive

Short answer needed: outcome of this test for "Sc1nc2cc(Cl)ccc2[nH]1" ?
inactive

GET /call?item= "Cc1ccc2[nH]c(=S)[nH]c2c1" returns the recorded outcome of this test.
inactive

How was "Cc1cccc2[nH]c(=S)[nH]c12" classified in this test?
inactive

Name the outcome recorded for "O=[N+]([O-])c1ccc2[nH]c(S)nc2c1" in the assay.
inactive

Assay result, entry "Fc1ccc2[nH]c(S)nc2c1" — outcome?
inactive

Tell me the recorded outcome of this test for Cc1c(C)c2c(c(C)c1O)CCC(C)(C(=O)O)O2 (stereo unspecified) .
active

Assay result, entry "N#Cc1ccc2[nH]c(S)nc2c1" — outcome?
inactive

Hi, do you know how "Sc1nc2ccccc2[nH]1" came out in this test?
inactive

Hi, sorry to bother you, what did the test record for "Cc1cc2nc(S)[nH]c2cc1C" ?
inactive
